Cited source for all entries: patent US6512097

Below, each entry is listed alongside its reported koff.
target: T1, c-erbB-2 ECD with a Ser-Gly-His6 C-terminal fusion (UniProt P04626 23-652); experiment: SPR BIAcore
T1 construct: extracellular domain; Expressed from CHO cells, IMAC purified; coupled to a CM5 chip, coated on plates, or biotinylated with NHS-LC-biotin; also called c-erbB-2 extracellular domain; biotinylated c-erbB-2 ECD
Could you give me the number in s⁻¹? Just the number is fine.

BINDER	koff (s⁻¹)
C6MH3-D1 (scFv, C6ML3-9 sFv, VH CDR3 library D mutant) scFv: QVQLLQSGAELKKPGESLKISCKGSGYSFTSYWIAWVRQMPGKGLEYMGLIYPGDSDTKYSPSFQGQVTISVDKSVSTAYLQWSSLKPSDSAVYFCARHDVGYCSSSNCAKWPEWLHVWGQGTLVTVSSGGGGSGGGGSGGGGSQSVLTQPPSVSAAPGQKVTISCSGSSSNIGNNYVSWYQQLPGTAPKLLIYGHTNRPAGVPDRFSGSKSGTSASLAISGFRSEDEADYYCASWDYTLSGWVFGGGTKLTVLG	0.00011

Proceed to the following item.
Consider C6MH3-D2 (scFv, C6ML3-9 sFv, VH CDR3 library D mutant) scFv: QVQLLQSGAELKKPGESLKISCKGSGYSFTSYWIAWVRQMPGKGLEYMGLIYPGDSDTKYSPSFQGQVTISVDKSVSTAYLQWSSLKPSDSAVYFCARHDVGYCSSSNCAKWPEWLGVWGQGTLVTVSSGGGGSGGGGSGGGGSQSVLTQPPSVSAAPGQKVTISCSGSSSNIGNNYVSWYQQLPGTAPKLLIYGHTNRPAGVPDRFSGSKSGTSASLAISGFRSEDEADYYCASWDYTLSGWVFGGGTKLTVLG . Its measured koff is 0.0002
